Where these numbers come from: patent US20020155443A1

Tested on: KM12
Test: DTP Human Tumor Cell Line Screen, sulforhodamine B assay
Format: cell-based
Conditions: Homo sapiens, Colon Cancer, 48 h
pIC50: −log10 of the molar value.
MEASURED_METRIC: pIC50

Query: Value lookup for pIC50; key = O=C(OCC1COCCOCCOCCOCCO1)c1ccc(CS(=O)(=O)CC#CCO)cc1 (stereo not shown)
Reply: < 4.00

---

Tested on: MCF7
Experiment: DTP Human Tumor Cell Line Screen, sulforhodamine B assay
Format: cell-based
Details: Homo sapiens, Breast Cancer, 48 h
pIC50: −log10 of the molar value.
MEASURED_METRIC: pIC50

Query: What measured pIC50 goes with O=C(OCC1COCCOCCOCCOCCO1)c1ccc(CS(=O)(=O)CC#CCO)cc1 (stereo not shown) ?
Reply: < 4.00

---

Tested on: HCT-15
Assay: DTP Human Tumor Cell Line Screen, sulforhodamine B assay
Assay type: cell-based
Details: Homo sapiens, Colon Cancer, 48 h
pIC50: −log10 of the molar value.
MEASURED_METRIC: pIC50

Query: Param readout= pIC50; system= HCT-15; entry= O=C(OCC1COCCOCCOCCOCCO1)c1ccc(CS(=O)(=O)CC#CCO)cc1 (stereo not shown) ; returns value.
Reply: < 4.00

---

Tested on: CAKI-1
Assay: DTP Human Tumor Cell Line Screen, sulforhodamine B assay
Format: cell-based
Conditions: Homo sapiens, Renal Cancer, 48 h
MEASURED_METRIC: IC50

Query: Consider the compound shown here: O=C(OCC1COCCOCCOCCOCCO1)c1ccc(CS(=O)(=O)CC#CCO)cc1 (stereo not shown) [Compound 3.2] What is its recorded IC50?
Reply: > 100 µM

---

Field: IC50. Provide a value for each of the compounds that follow.
Tested on: CAKI-1
Assay: DTP Human Tumor Cell Line Screen, sulforhodamine B assay
Assay type: cell-based
Settings: Renal Cancer, 48 h
Please give a number only; it is taken to be in µM.

Query: Field request: IC50 | item: `O=S1(=O)CC#CCOCCOCCOCCOCCOCCOCCOCC#CC1`
Reply: 21.2

Query: `O=S1(=O)CC#CCOCCOCCOCCOCCOCCOCC#CC1` ?
Reply: 12.2

---

Test system: SN12C
Experiment: DTP Human Tumor Cell Line Screen, sulforhodamine B assay
Type: cell-based
Conditions: Homo sapiens, Renal Cancer, 48 h
MEASURED_METRIC: IC50 (µM)
Supply the numeric figure in µM, leaving out any unit text.

Query: Recorded IC50 for O=C(OCC1COCCOCCOCCOCCO1)c1ccc(CS(=O)(=O)CC#CCO)cc1 (stereo not shown) with SN12C, please?
Reply: 30.3

---

Test system: OVCAR-8
Assay: DTP Human Tumor Cell Line Screen, sulforhodamine B assay
Type: cell-based
Conditions: Ovarian Cancer, 48 h
Would you kindly list pIC50 for each of these compounds?
Keep it numeric: pIC50 is minus log10 of the concentration in mol/L.

Query: Which pIC50 value is on record for `O=S1(=O)CC#CCOCCOCCOCCOCCOCCOCCOCC#CC1` ?
Reply: 4.48

Query: What about `O=S1(=O)CC#CCOCCOCCOCCOCCOCCOCC#CC1` ?
Reply: 4.85

---

System: DU-145
Assay: DTP Human Tumor Cell Line Screen, sulforhodamine B assay
Type: cell-based
Settings: Prostate Cancer, 48 h
MEASURED_METRIC: IC50 (µM)
Record the value in µM, omitting the unit from your answer.

Query: I am curious: what IC50 value has been reported for `O=S1(=O)CC#CCOCCOCCOCCOCCOCCOCC#CC1` ?
Reply: 32.8
